Target: c-Met (Homo sapiens, UniProt P08581)
Construct: T7 phage fusion (kinase-tagged T7 phage), or alternatively a DNA tag for qPCR; made in house; host or cells: E. coli BL21-derived host (T7 phage display) or HEK-293 cells
Sequence (P08581 25-1390): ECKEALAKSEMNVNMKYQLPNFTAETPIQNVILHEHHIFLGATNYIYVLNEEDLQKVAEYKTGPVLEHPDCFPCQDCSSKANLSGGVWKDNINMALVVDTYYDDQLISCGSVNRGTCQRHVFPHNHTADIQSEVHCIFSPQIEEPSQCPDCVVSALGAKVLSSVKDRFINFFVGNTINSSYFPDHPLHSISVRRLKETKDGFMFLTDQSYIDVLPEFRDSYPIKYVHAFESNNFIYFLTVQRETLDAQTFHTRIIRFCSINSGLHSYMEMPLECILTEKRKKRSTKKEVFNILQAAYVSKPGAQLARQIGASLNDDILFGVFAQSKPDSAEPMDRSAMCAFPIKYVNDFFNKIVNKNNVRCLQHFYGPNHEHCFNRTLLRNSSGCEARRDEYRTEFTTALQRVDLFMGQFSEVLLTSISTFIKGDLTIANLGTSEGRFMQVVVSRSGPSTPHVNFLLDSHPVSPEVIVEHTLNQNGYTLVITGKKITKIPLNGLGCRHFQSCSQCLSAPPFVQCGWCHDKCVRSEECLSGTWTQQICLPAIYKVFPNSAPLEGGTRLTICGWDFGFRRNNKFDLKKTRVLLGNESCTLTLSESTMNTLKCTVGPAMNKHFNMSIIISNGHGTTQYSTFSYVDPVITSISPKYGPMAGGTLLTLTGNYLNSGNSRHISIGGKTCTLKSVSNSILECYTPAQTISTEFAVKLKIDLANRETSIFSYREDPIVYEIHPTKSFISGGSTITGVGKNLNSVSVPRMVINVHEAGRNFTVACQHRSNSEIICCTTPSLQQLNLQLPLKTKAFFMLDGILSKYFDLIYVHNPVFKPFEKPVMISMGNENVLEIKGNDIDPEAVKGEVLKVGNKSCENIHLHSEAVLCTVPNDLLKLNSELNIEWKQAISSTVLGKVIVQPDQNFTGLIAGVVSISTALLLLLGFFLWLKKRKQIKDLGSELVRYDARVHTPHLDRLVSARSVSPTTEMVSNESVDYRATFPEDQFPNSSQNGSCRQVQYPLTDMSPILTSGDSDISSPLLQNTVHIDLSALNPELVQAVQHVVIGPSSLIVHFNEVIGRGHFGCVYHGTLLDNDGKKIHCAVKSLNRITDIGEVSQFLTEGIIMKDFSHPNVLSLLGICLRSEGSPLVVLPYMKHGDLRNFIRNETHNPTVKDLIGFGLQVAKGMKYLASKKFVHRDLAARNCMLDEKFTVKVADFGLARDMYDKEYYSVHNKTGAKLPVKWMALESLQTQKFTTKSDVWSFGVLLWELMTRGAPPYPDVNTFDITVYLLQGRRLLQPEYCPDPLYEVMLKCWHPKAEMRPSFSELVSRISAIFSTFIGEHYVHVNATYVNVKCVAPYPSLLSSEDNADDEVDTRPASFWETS
Assay: Kinase binding assay (Met biochemical assay, affinity beads/qPCR)
Listed next: entries and their corresponding IC50.

- C[C@@H](Oc1cc(C(=O)Nc2ccc(C(=O)N3CCN(C)CC3)cc2)nnc1N)c1c(Cl)ccc(F)c1Cl [reference compound]: < 5 nM

Entry CCn1cc(NC(=O)c2cc(OC(C)c3c(Cl)ccc(F)c3Cl)c(N)nn2)ccc1=O (racemic) [Example 7] — recorded IC50 = < 5 nM

----------
Target: ALK (Homo sapiens, UniProt Q9UM73)
Construct: T7 phage fusion (kinase-tagged T7 phage), or alternatively a DNA tag for qPCR
Sequence (Q9UM73 19-1620): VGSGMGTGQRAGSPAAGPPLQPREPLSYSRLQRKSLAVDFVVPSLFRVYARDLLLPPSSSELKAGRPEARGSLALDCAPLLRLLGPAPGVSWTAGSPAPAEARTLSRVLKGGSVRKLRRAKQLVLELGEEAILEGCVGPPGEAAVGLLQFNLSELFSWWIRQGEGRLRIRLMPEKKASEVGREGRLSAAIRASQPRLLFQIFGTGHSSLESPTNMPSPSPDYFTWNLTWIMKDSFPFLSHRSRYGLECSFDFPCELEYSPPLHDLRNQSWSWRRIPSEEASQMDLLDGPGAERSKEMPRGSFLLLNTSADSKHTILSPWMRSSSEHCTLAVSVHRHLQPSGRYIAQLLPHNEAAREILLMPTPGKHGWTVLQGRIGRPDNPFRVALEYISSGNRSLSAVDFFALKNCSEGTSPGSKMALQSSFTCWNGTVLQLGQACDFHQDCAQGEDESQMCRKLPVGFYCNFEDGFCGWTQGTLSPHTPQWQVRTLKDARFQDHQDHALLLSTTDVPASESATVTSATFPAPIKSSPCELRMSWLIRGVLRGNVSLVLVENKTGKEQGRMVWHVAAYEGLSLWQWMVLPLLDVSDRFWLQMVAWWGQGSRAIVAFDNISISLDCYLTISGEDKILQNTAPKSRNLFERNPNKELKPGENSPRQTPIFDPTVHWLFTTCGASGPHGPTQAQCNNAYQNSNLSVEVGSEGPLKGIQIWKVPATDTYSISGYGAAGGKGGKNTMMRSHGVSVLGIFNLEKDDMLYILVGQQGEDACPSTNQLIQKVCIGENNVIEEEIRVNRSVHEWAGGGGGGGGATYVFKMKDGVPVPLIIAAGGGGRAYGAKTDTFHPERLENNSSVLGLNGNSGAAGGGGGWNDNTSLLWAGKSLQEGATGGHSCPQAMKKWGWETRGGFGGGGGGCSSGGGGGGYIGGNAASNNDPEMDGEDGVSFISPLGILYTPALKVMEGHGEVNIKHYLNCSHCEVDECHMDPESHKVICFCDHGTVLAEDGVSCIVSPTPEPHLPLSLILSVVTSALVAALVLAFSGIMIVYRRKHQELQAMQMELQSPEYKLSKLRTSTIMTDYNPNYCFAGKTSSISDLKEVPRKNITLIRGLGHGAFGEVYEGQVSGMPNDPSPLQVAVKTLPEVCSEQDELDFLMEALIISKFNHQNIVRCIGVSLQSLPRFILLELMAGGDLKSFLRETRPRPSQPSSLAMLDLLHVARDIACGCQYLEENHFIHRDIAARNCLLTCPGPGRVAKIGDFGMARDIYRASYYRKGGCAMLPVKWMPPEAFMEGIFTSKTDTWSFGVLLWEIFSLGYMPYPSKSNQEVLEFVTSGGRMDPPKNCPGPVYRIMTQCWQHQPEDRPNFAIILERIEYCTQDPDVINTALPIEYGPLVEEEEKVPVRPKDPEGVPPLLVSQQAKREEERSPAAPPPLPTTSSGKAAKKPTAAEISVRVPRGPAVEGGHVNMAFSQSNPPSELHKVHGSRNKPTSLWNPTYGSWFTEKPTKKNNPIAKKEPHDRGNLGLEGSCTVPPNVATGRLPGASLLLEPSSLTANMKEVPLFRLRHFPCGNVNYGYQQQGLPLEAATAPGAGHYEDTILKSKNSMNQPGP
Assay: Kinase binding assay (ALK biochemical assay, affinity beads/qPCR)
Procedure: Met, ALK Biochemical Assays Kinase Assays. […] 23, p. […] 26, p. For most assays, kinase-tagged T7 phage strains were grown in parallel in 24-well blocks in an E. coli host derived from the BL21 strain. E. coli were grown to log-phase and infected with T7 phage from a frozen stock (multiplicity of infection ˜0.1) and incubated with shaking at 32° C. until lysis (˜90 minutes). […] The kinase concentration in the eluates was measured by qPCR.
pIC50: −log10 of the molar value.
attribute measured: pIC50

Guide cases for pIC50, answers given:
* C[C@@H](Oc1cc(C(=O)Nc2ccc(C(=O)N3CCN(C)CC3)cc2)nnc1N)c1c(Cl)ccc(F)c1Cl [reference compound] | > 8.30
* COCCn1cc(NC(=O)c2cc(OC(C)c3c(Cl)ccc(F)c3Cl)c(N)nn2)ccc1=O (racemic) [Example 6] | < 8.00
* CC(Oc1cc(C(=O)NC2CCC(=O)N(C)C2)nnc1N)c1c(Cl)ccc(F)c1Cl (stereo not drawn) [Example 4] | < 7.00
* CCn1cc(NC(=O)c2cc(OC(C)c3c(Cl)ccc(F)c3Cl)c(N)nn2)ccc1=O (racemic) [Example 7] | < 8.00
* C[C@@H](Oc1cc(C(=O)Nc2ccc(=O)n(C)c2)nnc1N)c1c(Cl)ccc(F)c1Cl [Example 1] | < 8.00

As a next step, examine the molecule that follows.
So, CC(Oc1cc(C(=O)Nc2ccc(=O)[nH]c2)nnc1N)c1c(Cl)ccc(F)c1Cl (racemic) [Example 5] ? Its pIC50 was < 8.00

----------
Parameter: IC50. Scope: all listed entries.
Molecular target: c-Met (Homo sapiens, UniProt P08581)
Construct: T7 phage fusion (kinase-tagged T7 phage), or alternatively a DNA tag for qPCR
Experiment: Kinase binding assay (Met biochemical assay, affinity beads/qPCR)

Solved cases below.
* COCCn1cc(NC(=O)c2cc(OC(C)c3c(Cl)ccc(F)c3Cl)c(N)nn2)ccc1=O (racemic) [Example 6] | < 5 nM
* C[C@@H](Oc1cc(C(=O)Nc2ccc(=O)n(C)c2)nnc1N)c1c(Cl)ccc(F)c1Cl [Example 1] | < 5 nM
* CC(Oc1cc(C(=O)NC2CCC(=O)N(C)C2)nnc1N)c1c(Cl)ccc(F)c1Cl (stereo not shown) [Example 4] | > 100 nM

// switching to the query compound
Recorded IC50 for CC(Oc1cc(C(=O)Nc2ccc(=O)[nH]c2)nnc1N)c1c(Cl)ccc(F)c1Cl (racemic) [Example 5] on c-Met (Homo sapiens, UniProt P08581) was < 5 nM

Source: patent US9242958B2
